System: HBV
test-method-notes: Anti-HBV activity, HepG2.117 cell line, intracellular HBV DNA by real-time PCR
Format: cell-based, Hepatitis B virus
conditions: Hepatitis B virus, HepG2.117, 72 h, read-out: HBV-AVE-HepG2.117 EC50
result-type: EC50 (nM)
Answers are plain numbers, in nM.

| molecule | system-under-test | measurement-units | EC50 |
| --- | --- | --- | --- |
| O=C(NC1CC1)C1Cc2conc2-c2c3c(nn2C1)CCN(C(=O)c1ccc(Cl)c(Cl)c1)C3 (centres unmarked) | HBV | nM | 154 |

Note: attention shifts to another entry.
Task: Param item = O=C(Nc1ccccc1)C1Cc2conc2-c2c3c(nn2C1)CCN(C(=O)c1ccc(Cl)c(Cl)c1)C3 (centres unmarked) ; retrieve measured EC50.
Result: 343
